system: MS2 coat protein; assay: apparent KD of MS2 coat protein; designed switch direction (-1 OFF switch, 1 ON switch): -1; higher = weaker reporter binding; details: input ligand: FMN 200 uM
Quick rule: apparent KD of MS2 coat protein of at least 200 nM means condition met, below that means condition not met.

A selection of reference data follows.
# primary_sequence, label_value
records = [
    ("GGAAUGUAAGGAUAUGCGAAAAGAAGCCGAAGGGAGUCGAAGCAGAAGGUACAUGAGGAUCACCCAUGUAAGGG [AK-MS2ROC-r4-exclusion4-12.1] (Eterna round: R97, puzzle: Exclusion 4)", "condition not met"),
    ("ACAAGCUUUUAGAUUCUUAACAUGAGGAUCACCCAUGUGCUCGUCUUAUUGGCCGGCCGGCCGCCGGAAAAGCUUGU (Eterna round: R97, puzzle: Sensor, turn-off variant 1)", "condition not met"),
    ("CGCUGGUGAGGAUAUGGGUGUGGUUACAUGAGGAUCACCCAUGUGGAGUCGCAUGUGGGUCCAGAAGGCGCGGGUG [-25.2, -23.4 kcal, 18% A] (Eterna round: R97, puzzle: Exclusion 5)", "condition not met"),
    ("GACUUCUCUGAGGAUAUUGCAUCAUACGAUAAAUAAGAAGGCAGAACAUGAGGAUCACCCAUGUGGGUUUUAAG [Bingo-Bango-33] (Eterna round: R97, puzzle: Exclusion 6)", "condition not met"),
    ("UUGUUCCGUGUAGGAUAUUGGUCUCCCUCGGGCCGAGAAGGACAUGAGGAUCACCCAUGUAUGUUAUUAUCGCGCGUGGCGCAU [Design 91] (Eterna round: R96, puzzle: Exclusion NG 1)", "condition not met"),
]

(Q) Determine whether measured apparent KD of MS2 coat protein meets or exceeds 200 nM for CUGAGUUGAGGAUAUACAUGAGGAUCACCCAUGUAAAGUAGCUUGCGUACAGGCAGAUGUAGAAGGCAAUUCGG [Mod of JL 3 - Jieux - Exclusion 3] (Eterna round: R97, puzzle: Exclusion 3)
(A) condition not met

(Q) Determine whether measured apparent KD of MS2 coat protein meets or exceeds 200 nM for GGGCCCGGAGGAUAUACAAUUCUGGGCUGAAAGGCUCGGGUACAUGAGGAUCACCCAUGUAGAAGGCCGGGCCC [-37.6, -34.7 kcal A 24%, 7bis-0] (Eterna round: R97, puzzle: Exclusion 2)
(A) condition not met

(Q) Determine whether measured apparent KD of MS2 coat protein meets or exceeds 200 nM for UUUUUACAUGAGGAUCACCCAUGUGAGGAUAUGGAGCGCGACCGCGCGGUCGCGUACACCAGAAGGCGCAUGAU [1st #77] (Eterna round: R97, puzzle: Exclusion 1)
(A) condition met

(Q) Determine whether measured apparent KD of MS2 coat protein meets or exceeds 200 nM for CGGGUUCGUGUUAGGAUAUGCACGCACCCGUAGCGGCAGAAGGAACAUGAGGAUCACCCAUGUGAAUAAGAAAA [BmEX4 A.3] (Eterna round: R97, puzzle: Brourd's mod of Exclusion 4)
(A) condition not met

###

system: K4 kissing-loop RNA reporter; assay: apparent KD of K4 kissing-loop reporter; higher = weaker reporter binding; conditions: Eterna round: R107; input ligand: FMN 200 uM;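 also: bound reporter read as fluorescence of individual clusters on recovered sequencing chips by microscopy, with normalized cluster intensities fitted with a binding model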
Quick rule: apparent KD of K4 kissing-loop reporter of at least 100 nM means true, below that means false.

A selection of reference data follows.
# primary_sequence, label_value
data = [
    ("CGGAUGUAGUGAUGUUAUAUAAGAUGUAGACGAGGACCGGUACGGCCGCCACUCGAAACGGCUACUAGCGCGUUGCGAGGUGUGC [ExTryptoA.CI]", "true"),
    ("UCGCCAAAGUCGGCCGCCACUCCGGGCCCUAUAAAUGGGCGCAGUGAUGUUGCGGCUAGGCCUCUGAGGACCGGGACUUUGUAGA [Esenusza]", "true"),
    ("UUUCUACCGGGAAGGAGCGUGAAUGAUAAUGGAUAUAGUGAUGUUAUAUAUACGAACGAAUCGCAGGUAGGUCGCCCGGAUCACU [SSArgB.U]", "true"),
    ("UCGACAGUGAACGAUACCAGCGUCACGUGGCUGGUGGUCACAUGAGUGAUGUUCAUGUAACGCCCUUGGCAGCGUGCACGUAUCA [KL-XTheo-B8]", "true"),
    ("UAAUAUACGAGUGAUGUUCGUUAUUUAUCAGAGGAUAUGCUUAAAUGCAGAAGGCUGUUUUUCUAAUUGAUAUUAAAUUUUUUUA [JR_Nu_ExcFMNA_Sub028]", "false"),
]

Continue with the next sequence.
(Q) Determine whether measured apparent KD of K4 kissing-loop reporter meets or exceeds 100 nM for GGGCCGCGCGCGGCCGCCACUCAGUGAUGUUGGGUGAGCUUUGCUGUGCGUGCUGUUUCGUGACGGAGGACCGGGCGCGCGGCCU [BDazzled 2]
(A) true

###

test system: MS2 coat protein; test: apparent KD of MS2 coat protein; designed switch direction (-1 OFF switch, 1 ON switch): -1; higher = weaker reporter binding; details: Eterna round: R95; input ligand: FMN 200 uM
experimental_readout: apparent KD of MS2 coat protein

Guide cases for apparent KD of MS2 coat protein, answers given:
# primary_sequence, test_result
records = [
    ("GGUCCACAUGAGGAUCACCCAUGUUAGGAUAUCUCCUGCCUCCUCACUGGAGGCAGACAGAGAAGGAACAUCAA [Eratxe] (puzzle: Exclusion 1)", "78.3 nM"),
    ("UUUAAUUUUUUUUUUUUACAAGCUUUUUGCUCGUCUUAUACAUGAGGAUCACCCAUGUAAGUGGAGGAUAAAUUAUC [JMF 33] (puzzle: Sensor v3, turn-off variant 2)", "24.7 nM"),
    ("GUGUAGUGAGGAUAUACAUGAGGAUCACCCAUGUGAAUAAGAUAGAAUAAGAUAAAGUGUAGAAGGCACAGUGU [Excluse me!!! 3 - Jieux - Exclusion 3] (puzzle: Exclusion 3)", "39.5 nM"),
    ("AUGGUCCGAGGAUAUAUUAUGUGAUACAUGAGGAUCACCCAUGUUAUAUGAUGGAUGUUAGUAGAAGGCGGACUAC [salish99_ex5_r3_002] (puzzle: Exclusion 5)", "89.3 nM"),
]

(Q) Would you kindly share the measured apparent KD of MS2 coat protein for AAAGAAGAGAGAAAAUAACACAUGAGGAUCACCCAUGUGAGAUGUUGAGGGUGAUACAGGCUUUUUGCUCGUCUUAU (puzzle: Sensor v3, turn-off variant 1) ?
(A) 231 nM

(Q) Would you kindly share the measured apparent KD of MS2 coat protein for CUCCUCAUGGCGCCUAAACACAUGAGGAUCACCCAUGUACAGGCUUCUUGCCGUCUUAUAAUAAAACCGAGGAUGCG [Onleorqula] (puzzle: Sensor v3, turn-off variant 1) ?
(A) 43.8 nM

(Q) Would you kindly share the measured apparent KD of MS2 coat protein for AGAAAUGCCCAUGGCCACAAGCUUUUUGCCUGUCUUACCACAUGAGGAUCACCCAUGUGACAUGGGCUCCUGAUAAU [Didilaeren] (puzzle: Sensor v3, turn-off variant 2) ?
(A) 15.8 nM

(Q) Would you kindly share the measured apparent KD of MS2 coat protein for GUGAAACAUGAGGAUCACCCAUGUGAGGAUAUGAUUAAGUAAUGAUGAAAGUAUAUAUUCAGAAGGCACAAUGG [Mat - Mod of JL D73] (puzzle: Exclusion 1) ?
(A) 132 nM

###

tested on: MS2 coat protein; assay: apparent KD of MS2 coat protein, switch ON state; designed switch direction (-1 OFF switch, 1 ON switch): -1; higher = weaker reporter binding; settings: FMN input: 0 or 200 uM; Eterna round: R93 (includes R88 designs)
Below is a list of entries, each paired with its recorded apparent KD of MS2 coat protein value.
The reply should contain only the number, in nM.

Guide cases for apparent KD of MS2 coat protein, answers given:
# primary_sequence, measurement_target, test_result
measured = [
    ("CCAGGACAUGAGGAUCACCCAUGUGAGGAUAUCUGUAUUCAAUCCUCGGAUUGAAUACAGAGAAGGCACAUGGA [Ex1: 659]", "MS2 coat protein", 38.6),
    ("AAAAAAAGAGGAUAUACAUGAAAAAUAAAAAUGUAAAAAAAACAUGAGGAUCACCCAUGUAGAAGGCUUAAAAA [Ecx-I 62% 1]", "MS2 coat protein", 24.6),
]

(Q) Could you share what apparent KD of MS2 coat protein was measured for AGCUAGUCAGGAUAUACGAAAAUGAACGAAGCUGAGAAGGGACAUGAGGAUCACCCAUGUAGAAGGGACUAGCA [Diamond 34] , tested on MS2 coat protein?
(A) 47.7

(Q) Could you share what apparent KD of MS2 coat protein was measured for AAGGGACAUGAGGAUCACCCAUGUUAGGAUAUCGGAAAAGGAAAAAAAAAAAAGAAGACGAGAAGGGACACCAA , tested on MS2 coat protein?
(A) 59.5
